experiment: Oral bioavailability and pharmacokinetic study in mice
Type: in vivo, female CD1 mice
applied_conditions: female, CD1, mouse, in vivo, po, 30 mg/kg
readout_label: AUC(0-t) (ng·h/mL)

molecule | measured_value
COc1ccc(Cn2[se]c3ccccc3c2=O)cn1 [MR6-26-2] | 1730

###

experiment: Oral bioavailability and pharmacokinetic study in mice
Format: in vivo, female CD1 mice
applied_conditions: female, CD1, mouse, in vivo, po, 30 mg/kg
Text: The analysis is based on free measurable amounts of free drug in the plasma and thus is likely to be an underestimation of active drug compound due to the extensive serum albumin binding seen with drugs in this class. F = (AUCINF-PO/mean AUCINF-IV)/(DosePO/DoseIV) × 100%, AUClast was alternatively used for F calculation when AUCINF was not available or beyond 120% of AUClast. […]
readout_label: bioavailability (%)

compound | measured_value
COc1ccc(Cn2[se]c3ccccc3c2=O)cn1 [MR6-26-2] | 29
